- Test system: Mus musculus
- procedure_text: Antidepressant activity in ip dosed CD1 mouse assessed as inhibition of tetrabenazine methanesulfonate-induced reserpine like behavior administered 30 mins before tetrabenazine methanesulfonate challenge measured after 30 mins
- Format: functional
So I've got a bunch of compounds here, and I need their ED50 values.

Worked cases, ED50 given:
smiles_notation=Oc1ccc(Cc2ccccc2C2CCNCC2)cc1 experimental_target="Mus musculus" test_readout=ED50 result="1.2 mg/kg"
smiles_notation=CC(=O)OC1(c2ccccc2Cc2ccccc2)CCN(Cc2ccccc2)CC1.Cl experimental_target="Mus musculus" test_readout=ED50 result="> 20 mg/kg"
smiles_notation=CN1CCC(O)(c2ccccc2Cc2ccccc2)CC1 experimental_target="Mus musculus" test_readout=ED50 result="18 mg/kg"
smiles_notation=COC1(c2ccccc2Cc2ccccc2)CCN(C)CC1.Cl experimental_target="Mus musculus" test_readout=ED50 result="> 20 mg/kg"
smiles_notation=COc1ccc(Cc2ccccc2C2CCNCC2)cc1.Cl experimental_target="Mus musculus" test_readout=ED50 result="7.1 mg/kg"

State the recorded ED50 for every item in the following list.
1. CN1CCC(OCc2ccccc2)(c2ccccc2)CC1.Cl
2. CN1CCC(c2ccccc2Cc2ccc(O)cc2)CC1
3. CN1CCC(O)(c2ccc(Cc3ccccc3)cc2)CC1
4. Br.COc1ccc(Cc2ccccc2C2=CCN(C)CC2)cc1
5. CC(=O)OC1(c2cccc(Cc3ccccc3)c2)CCN(C)CC1.Cl

Reply:
1: 6.2 mg/kg; 2: > 20 mg/kg; 3: > 20 mg/kg; 4: > 20 mg/kg; 5: > 20 mg/kg

List the reported ED50 of each compound below.
1. Br.COc1ccc(Cc2ccccc2C2CCN(C)CC2)cc1
2. C1=C(c2ccccc2Cc2ccccc2)CCN(CCc2ccccc2)C1

Reply:
1: > 20 mg/kg; 2: > 20 mg/kg
